B1: glmS ribozyme (parent)
chain: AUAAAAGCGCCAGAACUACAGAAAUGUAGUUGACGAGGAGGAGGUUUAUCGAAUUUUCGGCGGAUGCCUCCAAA

Variants of: B1
Assay: self-cleavage kobs at 640 uM GlcN6P; higher = faster cleavage; RNA array
Conditions: with glucosamine-6-phosphate
Fewer inactive variants are shown than the library holds.
Measured quantity: self-cleavage kobs at 640 uM GlcN6P

C11U G43C | < 1e-05 s⁻¹
C34U G37A A39G | < 1e-05 s⁻¹
G41U U54G | 0.000458 s⁻¹
C8U G32A G41U | < 1e-05 s⁻¹
A12G G29A G41C | < 1e-05 s⁻¹
A14G G32C A53U | 4.08e-05 s⁻¹
C11U G59U | 6.88e-05 s⁻¹
C8U C68A | < 1e-05 s⁻¹

Kindly indicate its recorded self-cleavage kobs at 640 uM GlcN6P. Item: G43U G59U
< 1e-05 s⁻¹

Kindly indicate its recorded self-cleavage kobs at 640 uM GlcN6P. Item: G41C A64C C67A
< 1e-05 s⁻¹

Kindly indicate its recorded self-cleavage kobs at 640 uM GlcN6P. Item: G44U U49A U54A G62U
< 1e-05 s⁻¹
